Test system: Coptotermes formosanus
Test: Termiticidal activity against Coptotermes formosanus placed on 0.01 % wt/wt compound treated filter paper assessed as termite mortality measured 11 days post compound exposure
Format: functional
Recorded mortality values for a group of compounds are listed next.
Give the value; after it, write the unit.

Worked cases, mortality given:
[
  {
    "compound": "CCCCCC1=CC(=O)C=C(OC)C1=O",
    "val": "0%"
  },
  {
    "compound": "COC1=C(OC)C(=O)C(C)=C(C)C1=O [Aurantiogliocladin]",
    "val": "0%"
  },
  {
    "compound": "CC1=CC(=O)C(C(C)C)=CC1=O",
    "val": "3.3%"
  },
  {
    "compound": "CC1=C(C)C(=O)C(Cl)=C(Cl)C1=O",
    "val": "3.8%"
  }
]

Would you kindly look at the next entry?
// query Quick one: give measured mortality for `COC1=C(OC)C(=O)C(CC=C(C)C)=C(C)C1=O`
// result 5%

From: ChEMBL document CHEMBL3045504
